Molecular target: T1, DOT1L (826-958) (human) (UniProt Q8TEK3)
T1 sequence: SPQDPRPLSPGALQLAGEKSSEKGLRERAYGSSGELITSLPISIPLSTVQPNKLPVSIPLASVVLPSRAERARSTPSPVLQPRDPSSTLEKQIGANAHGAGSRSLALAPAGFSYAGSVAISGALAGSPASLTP
Test: SPR; DOT1L construct immobilised on CM5 chip
pKd: −log10 of the molar value.
observed.property: pKd

INSERT INTO measurements (binder, observed_property, value) VALUES
  ('ENL (489-559), recombinant C-terminal domain of ENL (protein) GTYDKAYTDELVELHRRLMALRERNVLQQIVNLIEETGHFNVTNTTFDFDLFSLDETTVRKLQSCLEAVAT', 'pKd', 6.91),
  ('AF9 (497-568), recombinant C-terminal domain of human AF9 (protein) GECDKAYLDELVELHRRLMTLRERHILQQIVNLIEETGHFHITNTTFDFDLCSLDKTTVRKLQSYLETSGTS', 'pKd', 7.04);

Data origin, for the record: patent US20150368300A1
